# Target of assay: HoblOBP4 (Holotrichia oblita)
# Sequence (G9BWQ8 entry or part of it): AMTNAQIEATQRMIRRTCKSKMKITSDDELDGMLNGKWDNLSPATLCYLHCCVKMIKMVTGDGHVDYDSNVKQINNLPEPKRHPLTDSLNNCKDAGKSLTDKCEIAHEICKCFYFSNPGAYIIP
# Procedure text: biochemical
# Type: binding
# Applied conditions: HoblOBP4 alone

{"Compound": "C=CCc1ccc(O)c(OC)c1 [Eugenol]", "Affinity (in words)": "no afﬁnity"}
{"Compound": "O=C/C=C/c1ccccc1 [Cinnamaldehyde]", "Affinity (in words)": "good afﬁnity"}
{"Compound": "CC(=O)/C=C/C1=C(C)CCCC1(C)C [β-Ionone]", "Affinity (in words)": "good afﬁnity"}
{"Compound": "CC1=C(/C=C/C(C)=C/C=C/C(C)=C/CO)C(C)(C)CCC1 [Retinol]", "Affinity (in words)": "no afﬁnity"}
